System: NCI-H522 lung
Assay: NCI tumour cell line growth inhibition, 48 h
Here, each record is paired with measured TGI data.
value.type: TGI

> print(dat)
                                    compound  test.result
 1      C[N+]1(C)C[C@@H](O)C[C@@H]1C(=O)[O-]     > 100 µM
 2  CCOC(=O)C1=C(c2ccccc2)N(C(C)=O)Cc2ccccc21      51.7 µM
 3  Fc1ccc(-c2nn3c(COc4ccc(Cl)cc4Cl)nnc3s2)cc1Oc1ccccc1     > 100 µM
 4  O=C1N=C(Nc2nc(-c3csc(NC4=NC(=O)/C(=C\c5ccc(Cl)cc5)S4)n3)cs2)S/C1=C/c1ccc(Cl)cc1      > 50 µM
 5  N#CC1=C(N)OC(c2cccc([N+](=O)[O-])c2)C1(C#N)C#N (stereo not given)      28.8 µM
 6  CC[C@@]1(O)C(=O)NCc2c1cc1n(c2=O)Cc2cc3c(NC(C)=O)cccc3nc2-1     > 100 µM
 7  C#Cc1ccc(-n2c(/C=C/c3ccc4ccccc4c3)nc3ncccc3c2=O)cc1     > 100 µM
 8  CCOC(=O)c1cc(-c2ccccc2)[nH]c1N/N=C/c1c(Cl)cccc1Cl    > 26.2 µM
 9  CCOC(=O)CC(=O)CSc1c(-c2ccccc2)c(=O)n(-c2ccccc2)c(=S)n1-c1ccccc1     > 100 µM
10  COc1c(C)c(O)c2c(c1C)OC(c1ccccc1)CC2=O (stereo not given)     > 100 µM

* * *

Tested on: M14 melanoma
Experiment: NCI tumour cell line growth inhibition, 48 h
Here, each record is paired with measured TGI data.
value.type: TGI

> print(dat)
                                   compound  system.tested  test.result
1  Cc1ccc([N+](=O)[O-])cc1S(=O)(=O)Nc1ccc(C2=NOC(c3ccccc3O)C2)cc1 (centres undefined)   M14 melanoma      6.85 µM
2  COC(=O)[C@]12CC[C@@H](C)[C@H](C)[C@@H]1C1=CC[C@@H]3[C@@]4(C)CC(=O)[C@H](O)[C@@](C)(CO)[C@@H]4C(=O)C[C@@]3(C)[C@]1(C)CC2   M14 melanoma      25.1 µM
3  COc1c(C)c(O)c2c(c1C)OC(c1ccccc1)CC2=O (centres undefined)   M14 melanoma     > 100 µM
4  CC(=O)NC(CCCNC(=O)OCc1ccccc1)C(=O)O (centres undefined)   M14 melanoma     > 100 µM
5  COC(=O)C1(O)c2ccccc2N=C2C1CCN2C (centres undefined)   M14 melanoma     > 100 µM
6  COc1ccc2nc3c([N+](=O)[O-])ccc(NCCN(C)C)c3c(NCCN(C)C)c2c1   M14 melanoma      > 10 µM
7  c1ccc2c(c1)N=C(c1ccc3ccccc3c1)CC(c1cccc3ccccc13)S2 (centres undefined)   M14 melanoma     > 100 µM
8  Cc1ccc(N=NC(C2=NC(=O)CS2)c2nc3ccccc3[nH]2)cc1 (centres undefined)   M14 melanoma     > 100 µM
9  Cc1ccc(S(=O)(=O)Oc2nc3nc4ccccc4nc3nc2OS(=O)(=O)c2ccc(C)cc2)cc1   M14 melanoma     > 100 µM

* * *

System: RPMI-8226 leukemia
Assay: NCI tumour cell line growth inhibition, 48 h
value.type: TGI

> print(dat)
                                    compound  test.result
 1  CC(=O)NC(CCCNC(=O)OCc1ccccc1)C(=O)O (stereo not given)     > 100 µM
 2  CC(C)(C)OC(=O)NC(CS(=O)(=O)O)C(=O)O (stereo not given)     > 100 µM
 3  O=C(CSc1nc2ccc(I)cc2c(=O)n1Cc1ccccc1)NN1C(=O)c2ccccc2C1=O     > 100 µM
 4  O=C1OC2(OC2c2ccc(Cl)cc2)c2ccccc21 (stereo not given)     > 100 µM
 5  C[C@H](c1ccccc1)N(CCC(=O)O)C(=O)CCN(C(=O)CCN(C(=O)CCN[C@H](C)c1ccccc1)[C@H](C)c1ccccc1)[C@H](C)c1ccccc1     > 100 µM
 6      Cc1cccc(/C=N/NC(=S)N(C)CCc2ccccn2)n1     0.388 µM
 7  COc1ccc2c(c1)C(=O)c1c-2c(N2CCN(C(=O)CCNCCNCCO)CC2)nc2ccccc12      33.2 µM
 8  CC1COCCN1CC#CCOC(=O)c1cc2ccccc2oc1=O (stereo not given)     > 100 µM
 9  COc1ccc2nc3cc(Cl)ccc3c(Nc3cc(C(C)C)c(O)cc3C)c2c1      2.68 µM
10  COC(=O)NC(=O)c1cn(C2CCCCC2)c(=O)[nH]c1=O     > 100 µM

* * *

Here, each record is paired with measured TGI data.
Tested on: HOP-62 NSCLC
Experiment: NCI tumour cell line growth inhibition, 48 h
value.type: TGI

> print(dat)
                                    compound  test.result
 1  O=C1/C(=C/c2ccccc2[N+](=O)[O-])COc2ccc(O)c(O)c21      14.5 µM
 2  COC(=O)/C(=N/NC(C)(C)C)C(C(=O)OC)C(=O)C(=O)Nc1nc2ccc([N+](=O)[O-])cc2s1 (stereo unspecified)     > 100 µM
 3           Cn1cnc2c1c(=O)n(CCNCCO)c(=O)n2C     > 100 µM
 4     CC1CC(Br)C(=O)O1 (stereo unspecified)     > 100 µM
 5  c1ccc2c(c1)N=C(c1ccc3ccccc3c1)CC(c1cccc3ccccc13)S2 (stereo unspecified)     > 100 µM
 6  Fc1ccc(-c2nn3c(COc4ccc(Cl)cc4Cl)nnc3s2)cc1Oc1ccccc1      23.7 µM
 7  CN1CCc2cc3c4cc2C1Cc1ccc(cc1)Oc1cc(ccc1O)CC1c2c(cc(O)c(c2O4)O3)CCN1C (stereo unspecified)      11.2 µM
 8  CCCCCCC1CC(=O)C1(Cl)Cl (stereo unspecified)     > 100 µM
 9  CCOC(=O)CC(=O)CSc1c(-c2ccccc2)c(=O)n(-c2ccccc2)c(=S)n1-c1ccccc1     > 100 µM
10  CC1OC(OCC2OC(Oc3ccc(C4CC(=O)c5c(O)cc(O)cc5O4)cc3O)C(O)C(O)C2O)C(O)C(O)C1O (stereo unspecified)     > 100 µM
11  O=C1c2ccccc2C(=O)c2c1ccc1c2N=C(c2ccc(Br)cc2)CC(c2cccc3ccccc23)N1 (stereo unspecified)     > 100 µM
12      O=C(Nc1ncc([N+](=O)[O-])s1)c1ccccc1O    > 59.6 µM
13  CNCCN(C)Cc1cn[nH]c1-c1ccc(OC2CC(OCCC3CCOCC3)C2)cc1 (stereo unspecified)     > 100 µM
14  CSc1ccc(/C=C2\N=C(c3ccccc3)N(/N=C3\C(=O)Nc4ccccc43)C2=O)cc1     > 100 µM
15                      CNc1ncnc2c1cnn2CCCCO     > 100 µM
16     Cc1ccc(NC(=O)C(=O)CC(=O)c2ccccc2)cc1C     > 100 µM
17  COC(=O)C(/C(=N/N)C(=O)Nc1cccc(O)c1)c1nc2ccccc2[nH]c1=O (stereo unspecified)     > 100 µM
18   Fc1ccc(-c2c(-c3ccncc3)[nH]c3nccnc23)cc1      > 25 µM
19                 NNc1ncc2c(n1)-c1ccccc1OC2     > 100 µM
20  O=c1c2cc(S(=O)(=O)Nc3ccc(Cl)cc3Cl)ccc2ncn1NS(=O)(=O)c1cccc2ccccc12     > 100 µM
21      C[N+]1(C)C[C@@H](O)C[C@@H]1C(=O)[O-]     > 100 µM

* * *

System: EKVX NSCLC
Assay: NCI tumour cell line growth inhibition, 48 h
Here, each record is paired with measured GI50 data.
value.type: GI50

> print(dat)
                                    molecule  value.type  test.result
 1  CC[C@@]1(O)C(=O)NCc2c1cc1n(c2=O)Cc2cc3c(NC(C)=O)cccc3nc2-1        GI50     > 100 µM
 2  CC1COCCN1CC#CCOC(=O)c1cc2ccccc2oc1=O (configuration not stated)        GI50     > 100 µM
 3  COc1ccc(-c2nc3sccn3c2-c2ccnc(NCCCNS(=O)(=O)c3ccc(F)cc3)n2)cc1        GI50      3.12 µM
 4          COc1c2ccccc2c(O)c2c(=O)ccn(C)c12        GI50      17.9 µM
 5  CCOC(=O)c1cc(-c2ccccc2)[nH]c1N/N=C/c1c(Cl)cccc1Cl        GI50      5.96 µM
 6  COC1=CC2CCN3Cc4cc5c(cc4C(C1O)C23)OCC5 (configuration not stated)        GI50      4.66 µM
 7  Cc1cc(C#Cc2ccccc2)ccc1-n1c(/C=C/c2cc(O)ccc2O)nc2ccccc2c1=O        GI50      1.24 µM
 8  COc1cc(NC(=O)c2ccccc2Nc2ccnc(C(F)(F)F)c2)cc(OC)c1OC        GI50      48.3 µM
 9  N[C@@H](CSSC[C@H](N)C(=O)N1CCn2cc(-c3ccccc3)nc2[C@@H]1CC1CCCCC1)C(=O)N1CCn2cc(-c3ccccc3)nc2[C@@H]1CC1CCCCC1        GI50      1.34 µM
10  CCCc1n(Cc2ccc3ccccc3n2)cc[n+]1Cc1ccc2ccccc2n1        GI50      5.67 µM
11  CC/C(=N/N=C(N)N)c1ccc(NC(=O)Nc2ccc(/C(CC)=N/N=C(N)N)cc2)cc1        GI50      6.55 µM
12  O=C(c1ccco1)c1c(C(F)(F)F)n([O-])c2ccc(F)cc2[n+]1=O        GI50      2.95 µM
